# target-entity: human mutated 5HT2A receptor, AP-3 (Homo sapiens, UniProt P28223, T25N)
# Construct: Inositol Phosphate Accumulation AP-3 IC50 Value (nM); other: several concentrations; IP3 % of Control; other: one concentration of 10 μM, triplicate; control without test compound
# Sequence (P28223 whole entry T25N, looked up): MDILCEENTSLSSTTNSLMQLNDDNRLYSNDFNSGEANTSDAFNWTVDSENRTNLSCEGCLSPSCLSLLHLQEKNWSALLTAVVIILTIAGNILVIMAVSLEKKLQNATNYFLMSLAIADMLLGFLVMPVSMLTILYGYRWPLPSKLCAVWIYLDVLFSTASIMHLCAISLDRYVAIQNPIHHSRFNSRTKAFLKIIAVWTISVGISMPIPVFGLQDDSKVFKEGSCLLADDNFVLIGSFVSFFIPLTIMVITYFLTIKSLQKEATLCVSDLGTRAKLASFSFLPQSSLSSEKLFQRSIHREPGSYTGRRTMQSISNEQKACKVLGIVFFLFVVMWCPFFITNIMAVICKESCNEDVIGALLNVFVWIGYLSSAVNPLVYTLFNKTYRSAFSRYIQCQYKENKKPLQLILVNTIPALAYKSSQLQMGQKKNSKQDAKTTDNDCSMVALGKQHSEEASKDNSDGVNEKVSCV
# test-name: Inositol phosphate accumulation assay, AP-3;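 further: transfected 293 cells prelabeled with 3H-inositol, exposed to compound 120 min at 37 °C with LiCl and pargyline, inositol trisphosphates isolated by anion exchange and counted by scintillation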
# Type: cell-based
# stated-conditions: several concentrations; read-out: IP3 AP-3 IC50
pIC50: −log10 of the molar value.
measurement-type: pIC50

molecule	reported-result
CSc1ccc(NC(=O)Nc2cccc(-c3nn(C)cc3Br)c2)cc1 [Compound 116079]	7.77
Cn1cc(Br)c(-c2cccc(NC(=O)Cc3ccccc3F)c2)n1 [Compound 116176]	6.89
Cn1cc(Br)c(-c2cccc(NC(=O)Nc3ccc(Cl)cc3)c2)n1 [Compound 116081]	8.49
Cn1cc(Br)c(-c2cccc(NC(=O)NCc3ccc(F)cc3)c2)n1 [Compound 116182]	7.05
Cn1cc(Br)c(-c2cccc(NC(=O)Cc3cccc(F)c3)c2)n1 [Compound 116174]	6.82
Cn1cc(Br)c(-c2cccc(NC(=O)Cc3ccc([N+](=O)[O-])cc3)c2)n1 [Compound 116177]	7.21
CN(C(=O)Nc1cccc(-c2nn(C)cc2Br)c1)c1ccc(OC(F)(F)F)cc1 [Compound 116113]	6.71

----------
# target-entity: wild type human 5HT2A receptor (Homo sapiens)
# Construct: expressed in transfected cells; host or cells: COS-7 cells, pCMV vector
# Sequence (P28223 whole entry T25N/H452Y): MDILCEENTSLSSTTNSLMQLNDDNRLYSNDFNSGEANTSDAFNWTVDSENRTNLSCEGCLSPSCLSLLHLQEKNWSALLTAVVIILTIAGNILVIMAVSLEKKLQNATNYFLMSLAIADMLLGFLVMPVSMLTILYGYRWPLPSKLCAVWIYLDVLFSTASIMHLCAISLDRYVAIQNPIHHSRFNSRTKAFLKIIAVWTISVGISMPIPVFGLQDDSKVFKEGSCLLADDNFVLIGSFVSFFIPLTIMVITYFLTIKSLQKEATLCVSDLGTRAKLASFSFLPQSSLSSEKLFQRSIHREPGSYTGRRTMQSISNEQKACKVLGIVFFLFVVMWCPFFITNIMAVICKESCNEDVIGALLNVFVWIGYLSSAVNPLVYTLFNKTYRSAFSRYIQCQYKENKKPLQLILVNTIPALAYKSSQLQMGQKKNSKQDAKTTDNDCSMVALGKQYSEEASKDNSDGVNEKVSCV
# test-name: Competitive binding assay, [3H]LSD, WT 5HT2A
# stated-conditions: 1 nM [3H]LSD, COS7 membranes; read-out: Competitive Binding WT 5HT2A ([3H]LSD) IC50 Value

smiles-repr	IC50, µM
Cn1cc(Br)c(-c2cccc(NC(=O)Nc3ccc(OC(F)(F)F)cc3)c2)n1	0.046

----------
# target-entity: wild type human 5HT2A receptor (Homo sapiens)
# Construct: expressed in transfected cells; host or cells: COS-7 cells, pCMV vector
# test-name: Competitive binding assay, [3H]LSD, WT 5HT2A
# stated-conditions: competitive binding using LSD; read-out: WT 5HT2A LSD IC50
measurement-type: IC50 (nM)

smiles-repr	target-entity	quantity-unit	reported-result
Cc1ccccc1CNC(=O)Nc1cccc(-c2nn(C)cc2Br)c1	wild type human 5HT2A receptor (Homo sapiens)	nM	769
Cn1cc(Br)c(-c2cccc(NC(=O)Nc3cccc(Cl)c3)c2)n1	wild type human 5HT2A receptor (Homo sapiens)	nM	39
Cn1cc(Br)c(-c2cccc(NC(=O)Nc3ccc(C(F)(F)F)cc3)c2)n1	wild type human 5HT2A receptor (Homo sapiens)	nM	65
Cn1cc(Br)c(-c2cccc(NC(=O)Nc3ccccc3[N+](=O)[O-])c2)n1	wild type human 5HT2A receptor (Homo sapiens)	nM	238
Cn1cc(Br)c(-c2cccc(NC(=O)NC3CCCCC3)c2)n1	wild type human 5HT2A receptor (Homo sapiens)	nM	81
Cc1ccccc1NC(=O)Nc1cccc(-c2nn(C)cc2Br)c1	wild type human 5HT2A receptor (Homo sapiens)	nM	131
COc1ccc(CCNC(=O)Nc2cccc(-c3nn(C)cc3Br)c2)cc1	wild type human 5HT2A receptor (Homo sapiens)	nM	61
Cn1cc(Br)c(-c2cccc(NC(=O)Cc3ccc(OC(F)(F)F)cc3)c2)n1	wild type human 5HT2A receptor (Homo sapiens)	nM	106
Cn1cc(Br)c(-c2cccc(NC(=O)Cc3ccc([N+](=O)[O-])cc3)c2)n1	wild type human 5HT2A receptor (Homo sapiens)	nM	108
Cn1cc(Br)c(-c2cccc(NC(=O)Cc3cccc(F)c3)c2)n1	wild type human 5HT2A receptor (Homo sapiens)	nM	318
Cn1cc(Br)c(-c2cccc(NC(=O)Nc3ccccc3F)c2)n1	wild type human 5HT2A receptor (Homo sapiens)	nM	37
CSc1ccc(NC(=O)Nc2cccc(-c3nn(C)cc3Br)c2)cc1	wild type human 5HT2A receptor (Homo sapiens)	nM	4
Cn1cc(Br)c(-c2cccc(NC(=O)NCc3ccc(F)cc3)c2)n1	wild type human 5HT2A receptor (Homo sapiens)	nM	132
COc1ccccc1CC(=O)Nc1cccc(-c2nn(C)cc2Br)c1	wild type human 5HT2A receptor (Homo sapiens)	nM	2300
Cc1c(Cl)cc(NC(=O)Nc2cccc(-c3nn(C)cc3Br)c2)cc1Cl	wild type human 5HT2A receptor (Homo sapiens)	nM	122
COc1ccc(CNC(=O)Nc2cccc(-c3nn(C)cc3Br)c2)cc1OC	wild type human 5HT2A receptor (Homo sapiens)	nM	1010
CC(C)c1ccc(NC(=O)Nc2cccc(-c3nn(C)cc3Br)c2)cc1	wild type human 5HT2A receptor (Homo sapiens)	nM	338
Cn1cc(Br)c(-c2cccc(NC(=O)NCc3ccccc3)c2)n1	wild type human 5HT2A receptor (Homo sapiens)	nM	47
